meta.source: patent US20200024322A1

# experimental_system: T1, human GIP receptor (human, UniProt P48546 22-466)
# T1 construct: whole, on cells; Used as crude membranes of stably transfected CHO cells; also called hGIPR
# T1 sequence (looked up): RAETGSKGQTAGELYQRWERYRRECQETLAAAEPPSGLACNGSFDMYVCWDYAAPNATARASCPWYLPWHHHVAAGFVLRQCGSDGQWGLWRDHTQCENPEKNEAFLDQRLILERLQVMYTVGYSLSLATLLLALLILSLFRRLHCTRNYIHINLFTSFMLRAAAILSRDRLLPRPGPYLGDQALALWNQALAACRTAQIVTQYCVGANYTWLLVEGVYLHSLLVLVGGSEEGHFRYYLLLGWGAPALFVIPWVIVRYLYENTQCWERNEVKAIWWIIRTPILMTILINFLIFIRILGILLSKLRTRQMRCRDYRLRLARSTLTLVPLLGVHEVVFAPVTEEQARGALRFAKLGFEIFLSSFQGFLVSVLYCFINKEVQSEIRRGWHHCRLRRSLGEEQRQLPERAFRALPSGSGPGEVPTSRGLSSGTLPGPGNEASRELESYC
# run_description: SPA, [125I]-GIP displacement, hGIPR membranes
experimental_readout: Ki

YXEGTXTSDYSIXLDEKAQXEFIEYLIEGGPSSG (Aib2; αMeF6; αMeL13; K17((2-[2-(2-Amino-ethoxy)-ethoxy]-acetyl)2-(γ-Glu)-CO-(CH2)18-CO2H); Aib20; C-terminal NH2) [Example 124]    0.0424 nM
YXEGTXTSDYSIXLDKKAQXAFIEYLIEGGPSSGAPPPS (Aib2; αMeF6; αMeL13; K17((2-[2-(2-Amino-ethoxy)-ethoxy]-acetyl)2-(γ-Glu)2-CO-(CH2)18-CO2H); Aib20; C-terminal NH2) [Example 125]    0.0624 nM
XXEGTFTSDYSILLDKKAQXAFIEYLIEGGPSSGAPPPS (DesTyr1; Aib2; K17((2-[2-(2-Amino-ethoxy)-ethoxy]-acetyl)2-(γ-Glu)-CO-(CH2)18-CO2H); Aib20; C-terminal NH2) [Example 107]    0.0425 nM
YXEGTXTSDYSIXLDEKAQXEFIHYLIEGGPSSGAPPPS (Aib2; αMeF(2F)6; αMeL13; K17((2-[2-(2-Amino-ethoxy)-ethoxy]-acetyl)2-(γ-Glu)-CO-(CH2)18-CO2H); Aib20; C-terminal NH2) [Example 153]    0.0578 nM
YXEGTXTSDYSIXLDEKAQXEFIEYLIEGGPSSGAPPPS (Aib2; αMeF6; αMeL13; K17((2-[2-(2-Amino-ethoxy)-ethoxy]-acetyl)2-(γ-Glu)-CO-(CH2)18-CO2H); Aib20; C-terminal NH2) [Example 116]    0.0597 nM

I would be grateful if you could provide Ki for each of the following entries.
1. YXEGTFTSDYSILLDKKAQXAFIEYLIEGGPSSGAPPPS (Aib2; K17(AOC-(2-[2-(2-Amino-ethoxy)-ethoxy]-acetyl)-(γ-Glu)-CO-(CH2)18-CO2H); Aib20; C-terminal NH2) [Example 109]
2. YXEGTXTSDYSIXLDKKAQXAFIEYLIEGG (Aib2; αMeF6; αMeL13; K17((2-[2-(2-Amino-ethoxy)-ethoxy]-acetyl)2-(γ-Glu)-CO-(CH2)18-CO2H); Aib20; C-terminal NH2) [Example 99]
3. YXEGTFTSDYXILLDKKAQXAFIEYLIEGGPSSGAPPPS (Aib2; D-Ser11; K17((2-[2-(2-Amino-ethoxy)-ethoxy]-acetyl)2-(γ-Glu)-CO-(CH2)18-CO2H); Aib20; C-terminal NH2) [Example 81]

**A:**
1. 0.0279 nM
2. 0.027 nM
3. 0.198 nM
